The molecules listed here are annotated with their IC50.
Biological target: MAO-B (Homo sapiens, UniProt P27338)
Construct: human recombinant enzyme
Sequence (P27338 2-520): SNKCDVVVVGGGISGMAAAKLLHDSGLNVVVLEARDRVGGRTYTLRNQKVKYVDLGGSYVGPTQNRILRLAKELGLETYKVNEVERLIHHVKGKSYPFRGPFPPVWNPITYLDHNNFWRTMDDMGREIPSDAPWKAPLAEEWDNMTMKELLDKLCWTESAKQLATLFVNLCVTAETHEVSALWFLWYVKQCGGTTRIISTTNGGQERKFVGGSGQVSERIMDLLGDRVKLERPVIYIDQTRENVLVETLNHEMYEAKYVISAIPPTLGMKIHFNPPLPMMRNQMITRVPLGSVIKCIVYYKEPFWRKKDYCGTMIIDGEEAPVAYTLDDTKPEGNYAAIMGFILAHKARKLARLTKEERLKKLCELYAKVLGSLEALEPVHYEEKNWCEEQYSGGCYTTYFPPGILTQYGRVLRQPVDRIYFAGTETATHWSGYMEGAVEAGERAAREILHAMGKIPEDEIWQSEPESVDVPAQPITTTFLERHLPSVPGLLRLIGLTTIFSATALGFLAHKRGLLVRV
Assay: fluorescence, kynuramine to 4-hydroxyquinoline
Lab book: enter the figure in µM, no units written.

molecule: O=c1c(O[C@@H]2O[C@H](CO)[C@H](O)[C@H](O)[C@H]2O)c(-c2ccc(O)cc2)oc2cc(O)cc(O)c12 [compound 2, trifolin]
metric: IC50
unitTag: µM
observedValue: 861

Kindly consider the entry below.
[Q] # input molecule: C[C@@H]1O[C@@H](O[C@H]2[C@H](Oc3c(-c4ccc(O)cc4)oc4cc(O)cc(O)c4c3=O)O[C@H](CO)[C@@H](O)[C@@H]2O)[C@H](O)[C@H](O)[C@H]1O [compound 3, kaempferol-3-neohesperidoside] ; wanted: its IC50
[A] 242
